experiment: Cell Viability - Jurkat (AID 426); details: qHTS;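 further: potency means the concentration at half of the fitted maximal effect; cells exposed to compound for 40 hours at 37 °C before ATP read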
Records with an inconclusive call do not appear. Calls of active or inactive are those of the source.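 How the source made its calls: active means dose-dependent loss of cell ATP signal giving a full or clear fitted curve, ranked by lower potency value; inconclusive means weak partial curve or response only at the top dose; inactive means no loss of viability signal.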
Possible outcomes: t (active), f (inactive)

Smiles: O=C(O)CCC(=O)C(=O)O
Category label: f
//
Smiles: Cc1ccccc1
Category label: f
//
Smiles: CC1=C2[C@@H]([C@H](C)CC[C@H]2/C=C(\C)C(=O)O)[C@H](O)C1
Category label: f
//
Smiles: CCCCCCCC(=O)O
Category label: f
//
Smiles: IC(I)I
Category label: f
//
Smiles: O=CCCCC=O
Category label: t
//
Smiles: CCOc1ccc2c(c1)C(C)=CC(C)(C)N2
Category label: f
//
Smiles: CC(C)=O
Category label: f
//
Smiles: CCOC(C)=O
Category label: f

----------
experiment: Primary redox qHTS assay for identification of artifact compounds. (AID 1845223); conditions: Amplex Red/HRP redox cycling with DTT, fluorescence; series mostly up to 53.8 µM;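 further: 0% = DMSO and 100% = reference compound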
Records with an inconclusive call do not appear. Calls of active or inactive are those of the source. The call rests on the fitted dose curve; in most records, active means well fitted activation curve with a large enough effect; inconclusive means small, poorly fitted or top-dose-only effect; inactive means flat fitted curve, though single readings scatter.
Readout: redox activity (% of DA3003)

Compound: CC1(C)C(O)CCC2(C)C1C(O)C=C1COC(=O)C12O (stereo unspecified)
Readout: redox activity (% of DA3003)
Test result: inactive
--
Compound: CC(/C=C/C1(O)C(C)CC(O)CC1(C)C)OC1OC(CO)C(O)C(O)C1O (stereo unspecified)
Readout: redox activity (% of DA3003)
Test result: inactive
--
Compound: C[C@H]1[C@H](C)CC[C@]2(C(=O)O)CC[C@]3(C(=O)O)C(=CCC4[C@@]5(C)CC[C@H](O[C@@H]6O[C@H](C)[C@@H](O)[C@H](O)[C@H]6O)C(C)(C)C5CC[C@]43C)[C@H]12 (stereo partly specified)
Readout: redox activity (% of DA3003)
Test result: inactive
--
Compound: C[C@@H]1O[C@@H](O[C@@H]2[C@@H](O)[C@H](O[C@@H]3[C@@H](O)[C@@H](O)[C@H](O[C@H]4[C@H](OC(=O)[C@]56CCC(C)(C)C[C@H]5C5=CCC7[C@@]8(C)C[C@H](O)[C@H](O[C@@H]9O[C@@H](C)[C@H](O)[C@@H](O)[C@H]9O)[C@@](C)(CO)C8CC[C@@]7(C)[C@]5(C)C[C@H]6O)O[C@H](C)[C@H](O)[C@@H]4O)O[C@H]3C)OC[C@H]2O)[C@H](O)[C@H](O)[C@H]1O (stereo partly specified)
Readout: redox activity (% of DA3003)
Test result: 10.9% [at 11.5 µM] (inactive)
--
Compound: CC(=O)O[C@H]1CC[C@@]2(CI)C(=CC[C@@H]3[C@@H]2CC[C@]2(C)[C@@H]([C@H](C)CCCC(C)C)CC[C@@H]32)C1
Readout: redox activity (% of DA3003)
Test result: -3.63% [at 11.5 µM] (inactive)
--
Compound: NCc1c[nH]c(=S)n1C1CCc2c(F)cc(F)cc2C1 (stereo unspecified)
Readout: redox activity (% of DA3003)
Test result: inactive
--
Compound: C=C1C(O[C@@H]2O[C@H](CO)[C@@H](O)[C@H](O)[C@@H]2O)CC2C(C)(C)C(O)CCC2(C)C1CC/C(C)=C\CO (stereo partly specified)
Readout: redox activity (% of DA3003)
Test result: inactive
--
Compound: COc1cc(/C=C/C(=O)O[C@H]2[C@H](OC(=O)/C=C/c3cc(OC)c(O)c(OC)c3)O[C@H](CO[C@@H]3O[C@H](CO)[C@@H](O)[C@H](O)[C@H]3O)[C@@H](O)[C@@H]2O)ccc1O
Readout: redox activity (% of DA3003)
Test result: inactive
--
Compound: CC(=O)O[C@H]1[C@H](C)[C@@H](O)[C@H]2[C@@H]1C=C(C(=O)O)[C@H]1C[C@@H]3[C@H]([C@H]21)[C@H]1C(=O)O[C@@H]2CC[C@@]3(C)O[C@]1(O)[C@@H]2C
Readout: redox activity (% of DA3003)
Test result: inactive
--
Compound: CC(C)CNC(=O)/C=C/CCCCc1ccc2c(c1)OCO2
Readout: redox activity (% of DA3003)
Test result: inactive
--
Compound: O=C(/C=C/c1ccc(O)cc1)OC[C@H]1O[C@@H](OC(=O)/C=C/c2ccccc2)[C@H](O)[C@@H](O)[C@@H]1O
Readout: redox activity (% of DA3003)
Test result: inactive
--
Compound: CNC(=O)c1ccc(Nc2ncc(C(F)(F)F)c(NCc3nccnc3N(C)S(C)(=O)=O)n2)cc1
Readout: redox activity (% of DA3003)
Test result: inactive
--
Compound: CC(=O)OC[C@]12[C@H](OC(C)=O)C(=O)[C@@H]3[C@@H](OC(C)=O)[C@@]14O[C@@]3(C)COC(=O)c1cccnc1[C@@H](C)[C@H](C)C(=O)O[C@@H]([C@H](OC(C)=O)[C@@H]2OC(C)=O)[C@]4(C)O
Readout: redox activity (% of DA3003)
Test result: inactive
--
Compound: CC(c1c[nH]c2ccccc12)C(O)C(=O)O (stereo unspecified)
Readout: redox activity (% of DA3003)
Test result: inactive
--
Compound: CC(=O)OCCC(C)CCC1C(C)(O)CCC2C(C)(C)CCCC21C (stereo unspecified)
Readout: redox activity (% of DA3003)
Test result: inactive
--
Compound: C/C(=C\CO)CC/C=C(\C)C(=O)O[C@H]1[C@H](OC2OC=C(C(=O)O)C3CCC(C)(O)C23)O[C@H](CO)[C@@H](O)[C@@H]1O (stereo partly specified)
Readout: redox activity (% of DA3003)
Test result: inactive
--
Compound: C=C1CC2[C@]3(C)C(=C(O)C(=O)[C@@]2(C)[C@]2(C(=O)OC)C(=O)C(C)OC(=O)[C@@]12C)C(C)(C)C(=O)CC3O (stereo partly specified)
Readout: redox activity (% of DA3003)
Test result: inactive
--
Compound: COc1cccc(-n2nc(C(=O)O)cc2-c2ccc(C3CCCCC3)c(Cl)c2)c1
Readout: redox activity (% of DA3003)
Test result: inactive
--
Compound: C=CC1C(O[C@@H]2O[C@H](CO)[C@@H](O)[C@H](O)[C@H]2O)OC=C(C(=O)OC)C1Cc1nccc2c1[nH]c1ccccc12 (stereo partly specified)
Readout: redox activity (% of DA3003)
Test result: inactive
--
Compound: C[C@]12CCC(=O)C=C1[C@@H](O)C[C@@H]1[C@@H]2[C@@H](O)C[C@@]2(C)[C@H]1CC[C@]2(O)C(=O)CO
Readout: redox activity (% of DA3003)
Test result: inactive
--
Compound: C=CC(C)(CC/C=C(\C)CC/C=C(\C)CC(O)/C=C(\C)C(=O)O)O[C@@H]1O[C@H](CO)[C@@H](O)[C@H](O)[C@H]1O[C@@H]1O[C@H](CO)[C@@H](O)[C@H](O)[C@H]1O (stereo partly specified)
Readout: redox activity (% of DA3003)
Test result: inactive
--
Compound: CC1=CCC2C(C)(CO)CCCC2(C)C1CC12OC1C(O)C(CO)=CC2O (stereo unspecified)
Readout: redox activity (% of DA3003)
Test result: inactive
--
Compound: CC(C)C(=O)c1cn(CC(=O)COc2ccc(Oc3ccccc3)cc2)c2ccc(C(=O)O)cc12
Readout: redox activity (% of DA3003)
Test result: inactive
--
Compound: O=C(/C=C/c1ccc(O)c(O)c1)OCc1ccccc1O[C@@H]1O[C@H](CO)[C@@H](O)[C@H](O)[C@H]1O
Readout: redox activity (% of DA3003)
Test result: inactive
--
Compound: OCCc1ccc(O[C@@H]2O[C@H](CO)[C@@H](O)[C@H](O)[C@H]2O)c(O)c1
Readout: redox activity (% of DA3003)
Test result: inactive
--
Compound: CC(C)=CCC[C@](C)(O[C@@H]1O[C@H](CO[C@@H]2OC[C@@H](O)[C@H](O)[C@H]2O)[C@@H](O)[C@H](O)[C@H]1O)[C@H]1CC[C@]2(C)[C@@H]1[C@H](O)C[C@@H]1[C@@]3(C)CC[C@H](O[C@@H]4O[C@H](CO)[C@@H](O)[C@H](O)[C@H]4O[C@@H]4O[C@H](CO)[C@@H](O)[C@H](O)[C@H]4O)C(C)(C)[C@@H]3CC[C@]12C
Readout: redox activity (% of DA3003)
Test result: inactive

----------
test system: astro; assay: Drug repurposing screens with cells derived from glioblastoma tumor samples (AID 1345199); settings: viability, ATP luminescence, 48 h; series mostly up to 45.9 µM; further: nearly all actives have a fitted effect of over 40% in size
Inconclusive results are not listed. The source made the active and inactive calls. Calls come from the whole dose curve; as a rule, active = well fitted inhibition curve with a large enough effect; inconclusive = small, poorly fitted or top-dose-only effect; inactive = flat fitted curve, though single readings scatter.
Possible outcomes: active, inactive

Compound: CCCCC(=O)O[C@]1(C(=O)CO)[C@H](C)C[C@H]2[C@@H]3CCC4=CC(=O)C=C[C@]4(C)[C@@]3(F)[C@@H](O)C[C@@]21C
Category label: inactive

Compound: CO[C@H](C(=O)[C@@H](O)[C@@H](C)O)C1Cc2cc3cc(O[C@H]4C[C@@H](O[C@H]5C[C@@H](O)[C@H](O)[C@@H](C)O5)[C@@H](O)[C@@H](C)O4)c(C)c(O)c3c(O)c2C(=O)[C@H]1O[C@H]1C[C@@H](O[C@H]2C[C@@H](O[C@H]3C[C@](C)(O)[C@H](O)[C@@H](C)O3)[C@H](O)[C@@H](C)O2)[C@H](O)[C@@H](C)O1 (stereo partly specified)
Category label: active

Compound: CC1(C)S[C@@H]2[C@H](NC(=O)C(C(=O)O)c3ccsc3)C(=O)N2[C@H]1C(=O)O (stereo partly specified)
Category label: inactive

Compound: CCCCCCCCCCCCCCCCCCOP(=O)([O-])OC1CC[N+](C)(C)CC1
Category label: inactive

Compound: Cc1cn([C@H]2C[C@H](O)[C@@H](CO)O2)c(=O)[nH]c1=O
Category label: inactive

Compound: C/C1=C2N=C(/C=C3N=C(/C(C)=C4\[N-][C@@](C)([C@@H]5N=C1[C@](C)(CCC(=O)NCC(C)OP(=O)(O)O[C@H]1[C@@H](O)[C@@H](n6cnc7cc(C)c(C)cc76)O[C@@H]1CO)[C@H]5CC(N)=O)[C@@](C)(CC(N)=O)[C@@H]4CCC(N)=O)[C@@](C)(CC(N)=O)[C@@H]\3CCC(N)=O)C(C)(C)[C@@H]/2CCC(N)=O.CC(=O)O.[Co] (stereo partly specified)
Category label: inactive
